Record form. Attribute: log10 of EC50. Fill in for each entry.
experimental.system: α2A adrenoceptor (Homo sapiens)
Construct: host or cells: 293
assay.name: Agonist screening mode cAMP assay, 293-α2A cells
Assay type: cell-based
Remember, log10 of EC50, in nM.

Examples from the recorded data:
- compound: "CC(c1c[nH]cn1)c1cccc2c1C=CC2(C)C (centres unmarked)"
  log10 of EC50: 1.51
- compound: "CC(c1c[nH]cn1)c1cccc2c1C=CC2 (centres unmarked) [Compound 8, 4-[1-(1H-Inden-4-yl)ethyl]-1H-imidazole]"
  log10 of EC50: -0.04
- compound: "C[C@H](c1c[nH]cn1)c1cc(F)cc2c1C=CC2"
  log10 of EC50: 0.96
- compound: "CC(c1c[nH]cn1)c1cccc2c1OCC2 (centres unmarked)"
  log10 of EC50: 0.67

Give log10 of EC50 for all compounds that follow.
1. CC(c1c[nH]cn1)c1cccc2c1CC2 (centres unmarked)
2. CC(c1c[nH]cn1)c1cccc2c1CCCC2 (centres unmarked)
3. C[C@H](c1c[nH]cn1)c1cccc2c1CCC2
4. CC1Cc2cccc(C(C)c3c[nH]cn3)c2O1 (centres unmarked)

1: 0.49; 2: 0.55; 3: 0.65; 4: 2.55

---

experimental.system: α2A adrenoceptor (Homo sapiens, UniProt P08913)
Construct: host or cells: 293
Sequence (P08913 whole entry, species assumed): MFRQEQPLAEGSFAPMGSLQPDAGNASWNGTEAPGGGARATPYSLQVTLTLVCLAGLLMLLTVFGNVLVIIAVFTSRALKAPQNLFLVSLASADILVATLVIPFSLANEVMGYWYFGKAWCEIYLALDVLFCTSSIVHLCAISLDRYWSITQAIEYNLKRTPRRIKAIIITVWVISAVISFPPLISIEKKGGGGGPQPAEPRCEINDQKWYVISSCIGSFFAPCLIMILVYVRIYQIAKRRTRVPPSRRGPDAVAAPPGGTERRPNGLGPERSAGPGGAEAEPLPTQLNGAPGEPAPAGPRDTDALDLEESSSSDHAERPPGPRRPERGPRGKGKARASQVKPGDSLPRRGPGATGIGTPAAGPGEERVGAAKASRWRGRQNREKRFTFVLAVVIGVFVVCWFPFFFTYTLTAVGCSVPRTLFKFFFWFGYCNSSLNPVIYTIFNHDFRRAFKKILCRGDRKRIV
assay.name: Agonist screening mode cAMP assay, 293-α2A cells
Assay type: cell-based
experimental.setup: in words, compared with dexmedetomidine hydrochloride
property: agonistic activity α1A/2A

Examples from the recorded data:
- molecule: "CC(c1c[nH]cn1)c1cccc2c1C=CC2 (centres unmarked) [Compound 8, 4-[1-(1H-Inden-4-yl)ethyl]-1H-imidazole]"
  observed.value: "superior"
- molecule: "CC(c1c[nH]cn1)c1cccc2c1CCCC2 (centres unmarked)"
  observed.value: "comparable"
- molecule: "CC(c1c[nH]cn1)c1cccc2c1CC2 (centres unmarked)"
  observed.value: "superior"
- molecule: "CC(c1c[nH]cn1)c1cccc2c1OCC2 (centres unmarked)"
  observed.value: "comparable"
- molecule: "CC(c1c[nH]cn1)c1cccc2c1C=CC2(C)C (centres unmarked)"
  observed.value: "comparable"
- molecule: "C[C@H](c1c[nH]cn1)c1cccc2c1CCC2"
  observed.value: "comparable"
- molecule: "C[C@H](c1c[nH]cn1)c1cc(F)cc2c1C=CC2"
  observed.value: "comparable"

Could you now look at the following molecule, please?
For CC(c1c[nH]cn1)c1cccc2c1SCCC2 (centres unmarked) , what is its reported agonistic activity α1A/2A? comparable

---

experimental.system: α2B receptor (Homo sapiens, UniProt P18089)
Construct: expressed in transfected cells; host or cells: CHO-K1
Sequence (P18089 whole entry): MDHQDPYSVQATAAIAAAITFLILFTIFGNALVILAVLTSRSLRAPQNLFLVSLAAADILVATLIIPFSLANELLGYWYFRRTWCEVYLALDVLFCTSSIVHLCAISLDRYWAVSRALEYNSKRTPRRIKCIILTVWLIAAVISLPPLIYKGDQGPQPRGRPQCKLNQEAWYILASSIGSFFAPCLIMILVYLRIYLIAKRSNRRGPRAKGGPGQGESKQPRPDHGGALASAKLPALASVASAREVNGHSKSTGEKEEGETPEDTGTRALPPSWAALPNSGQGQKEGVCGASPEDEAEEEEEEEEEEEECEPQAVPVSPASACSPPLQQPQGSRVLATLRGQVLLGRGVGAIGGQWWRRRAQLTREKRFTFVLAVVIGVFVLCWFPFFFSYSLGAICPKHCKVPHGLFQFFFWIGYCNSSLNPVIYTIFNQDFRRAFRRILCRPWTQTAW
assay.name: Competitive receptor binding assay, α2B (3H-RX821002, CHO-K1-α2B membranes)
property: pKi
Answers are plain numbers, as −log10 of the molar value.

- molecule: "CC1Cc2cccc(C(C)c3c[nH]cn3)c2O1 (centres unmarked)"
  pKi: 7.55
- molecule: "CC(c1c[nH]cn1)c1cccc2c1C=CC2(C)C (centres unmarked)"
  pKi: 6.61
- molecule: "CC(c1c[nH]cn1)c1cccc2c1C=CC2 (centres unmarked) [Compound 8, 4-[1-(1H-Inden-4-yl)ethyl]-1H-imidazole]"
  pKi: 7.42
- molecule: "CC(c1c[nH]cn1)c1cccc2c1CCCC2 (centres unmarked)"
  pKi: 7.19
- molecule: "C[C@H](c1c[nH]cn1)c1cc(F)cc2c1C=CC2"
  pKi: 7.26

Give pKi for all molecules that follow.
1. C[C@H](c1c[nH]cn1)c1cccc2c1CCC2
2. CC(c1c[nH]cn1)c1cccc2c1CC2 (centres unmarked)

7.48
7.21

For CC(c1c[nH]cn1)c1cccc2c1OCC2 (centres unmarked) , what is its reported pKi? 8.22

The reported numbers originate from patent EP4729516A1.
